# Tested on: SK-MEL-28 melanoma
# test description: NCI tumour cell line growth inhibition, 48 h
assay metric: TGI

# example entries with known answers
compound | assay metric | result
O=C1C(c2ccccc2)=[N+]([O-])c2cc([N+](=O)[O-])c(/C(Cl)=C/c3ccccc3)cc21 | TGI | 61 µM
FC(F)(F)c1cccc2ns[s+]c12 | TGI | > 100 µM
c1cc2sc1CSCCSCCSC2 | TGI | > 100 µM

Next:
Give recorded TGI. O=C1CCC(c2nc3cc(Cl)ccc3o2)C(=O)N1 (configuration not stated)
> 100 µM

* * *

# System: ACHN renal
# test description: NCI tumour cell line growth inhibition, 48 h
assay metric: GI50

Recorded results for 3 compounds are shown here.
smiles repr | result
O=C(O)c1sccc1O | 28600 nM
Cc1nc2ccccc2c(/C=C/c2ccc(Cl)cc2)c1C(=O)/C=C/c1ccc(F)cc1 | 1510 nM
CCCCCc1c(C)[nH]c(/C=C2\N=C(c3ccc[nH]3)C=C2Oc2ccccc2)c1C | 17.3 nM

Continue with the next compound.
# return recorded GI50 for entry `COc1cc2c(cc1OC)[Se]c1cc(OC)c(OC)cc1[Se]2`
> 100000 nM

* * *

# System: HCT-15 colon
# test description: NCI tumour cell line growth inhibition, 48 h; in the data active = GI50 below about 0.43 µM; inactive = the rest
Give one outcome, nothing more. List: yes (1) = active, no (0) = inactive

Would you please look over these solved cases?
molecule | cat
Cc1cc(Nc2ncc(F)c(N[C@H]3[C@@H](C(N)=O)[C@@H]4C=C[C@H]3C4)n2)ccc1N1CCN(C)CC1 | yes (1)
CC1SC(c2ccc(Cl)c(Cl)c2)N(NC(=O)C(O)c2ccccc2)C1=O (stereo not drawn) | no (0)
CCCCCc1c(C)[nH]c(/C=C2\N=C(c3ccc[nH]3)C=C2Oc2ccccc2)c1C | yes (1)

Given `COc1ccc(-c2c(C#N)c(N)nc3c2COc2ccc(F)cc2-3)cc1OC` , state the outcome it received in this test.
no (0)

Please indicate how the test categorized `CCC(=C/[C@H](C)C/C=C/C(C)=C/[C@@H](C)C(=O)[C@@H](C)[C@H](O)[C@@H](C)CC)/C=C/[C@@H]1OC(=O)C=C[C@@H]1C` .
yes (1)

Call for entry `ClC1=C(Cl)C(Cl)=C(Cl)C1=Cc1ccccc1` :
no (0)

Call for entry `CC/C=C\C/C=C\C[C@H]1C/C=C2/C(=O)C=C[C@@H]2C/C=C\CCC(=O)O1` :
no (0)

How was `O=C(Nc1ccc(Oc2cccc(Cl)c2)c(Cl)c1)c1cnccn1` classified in this test?
yes (1)

* * *

Measured TGI of individual entries
# Test system: SF-295 CNS
# test description: NCI tumour cell line growth inhibition, 48 h

compound | result
Nc1ccc2c(c1)Cc1ccccc1-2 | > 100 µM
CC1SC(c2ccc(Cl)c(Cl)c2)N(NC(=O)C(O)c2ccccc2)C1=O (stereo unspecified) | 67.5 µM
O=c1[nH]c2ccc(N=Cc3c(O)[nH]c4ccccc34)cc2[nH]1 | > 25 µM
O=C1c2ccc3cc(CCl)cc(O)c3c2C(=O)c2cccc(O)c21 | > 10 µM
COc1ccc2c(c1OC)CO[C@@H]2[C@H]1c2c(c(Br)c3c(c2OC)OCO3)CCN1C | 7.65 µM
Cc1cccc(NC2=C(Cl)C(=O)N(Cc3ccc(Cl)cc3)C2=O)c1 | 27.4 µM
N#C/C(=C\c1cc(Br)c(O)c(Br)c1)c1ccccn1 | > 100 µM
C=C=C(C)C(=O)N(C(C)C)C(C)C | > 100 µM
CCC1(O)C(=O)OCc2c1cc1n(c2=O)Cc2cc3ccc(CO)cc3nc2-1 (stereo unspecified) | > 79.3 µM
CCC1([N+](=O)[O-])CC2C=CC1C2 (stereo unspecified) | > 100 µM

Identify the reported TGI for the following entry. COC(=O)CSC1CC(=O)c2c(Cl)sc(Cl)c21 (stereo unspecified)
> 100 µM

* * *

# Test system: 786-0 renal
# test description: NCI tumour cell line growth inhibition, 48 h
assay metric: TGI (µM)
Value expressed in µM; do not type the unit.

Please review the following examples before continuing.
compound | assay metric | units label | result
CCCCn1c(C)c(C(=O)CC)c(C(=O)NCCN2CCN(c3ccccc3Cl)CC2)c1C | TGI | µM | 32.5
Oc1c(Cl)cc(Cl)c2ccc(Cn3cc(-c4cc(F)cc(F)c4)nn3)nc12 | TGI | µM | 4.84
CC1=C[C@H](O)[C@@]2(C)[C@@H]([C@@H]1C)[C@H]1CC[C@@H]3[C@@]4(C)CC[C@H](O)C(C)(C)[C@@H]4CC[C@@]3(C)[C@]1(C)C[C@@H]2O | TGI | µM | 28.2

Specify measured TGI for COc1cc(OC)cc(C2C(C#N)=C(N)Oc3c2ccc2ccc(O)cc32)c1 (stereo not drawn) .
9.23

* * *

# Test system: DMS 114 small cell lung
# test description: NCI tumour cell line growth inhibition, 48 h
assay metric: TGI

A selection of reference data follows.
compound | tested system | assay metric | result
COc1cccc(CC(C)N)c1 (stereo unspecified) | DMS 114 small cell lung | TGI | > 100 µM
Nc1nc(-c2ccccc2)cc(-c2ccccc2O)n1 | DMS 114 small cell lung | TGI | > 100 µM
COc1cc2c(cc1OC)C(Cc1ccc(Oc3cc(CC4c5cc(OC)c(OC)cc5CCN4C)ccc3O)cc1)N(C)CC2 (stereo unspecified) | DMS 114 small cell lung | TGI | 30.9 µM
O=Cc1c(Cn2ccnc2)c2cc([N+](=O)[O-])ccc2n1Cc1ccccc1 | DMS 114 small cell lung | TGI | > 100 µM
O=[N+]([O-])c1nccn1COCCI | DMS 114 small cell lung | TGI | > 100 µM

Supply reported TGI belonging to this compound: COC(=O)C(C/C=C(\C)c1ccccc1)C(C)=O (stereo unspecified)
> 95.9 µM

Determine from records and report TGI for `Cn1c(/C=C/CO)c(CO)c2c1C(=O)C=C(N1CC1)C2=O`
0.0153 µM

Answer with the recorded TGI for the compound listed here: `CCOC(=O)C1(C(=O)OCC)OC(=O)NC2=C1CCCC2`
> 100 µM

Please report TGI for the following compound: CSc1nc(SC)c2cnn(CC3CO3)c2n1 (stereo unspecified)
32.6 µM

# return recorded TGI for entry O=C(O)CCC(NC(=O)c1ccc(Nc2nc3ccc(C(F)(F)F)cc3nc2-c2ccccc2)cc1)C(=O)O (stereo unspecified)
> 100 µM

State its TGI: `O=C(c1ccccc1)c1nc2ccc(Cl)cc2c2c1Cc1ccccc1-2`
> 100 µM

* * *

# System: ACHN renal
# test description: NCI tumour cell line growth inhibition, 48 h
assay metric: TGI

Specify TGI for `NN/C(=N\S(=O)(=O)c1ccc(-c2ccccn2)s1)Nc1ccc(Cl)cc1` , system ACHN renal.
> 100 µM

Tell me its TGI on ACHN renal: `COc1cc(NC(=O)c2ccc(C(F)(F)F)nc2Nc2cc(Cl)ccc2C)cc(OC)c1OC`
34 µM

Report value: TGI, system: ACHN renal, compound: `CC(=O)Oc1ccc2oc(=O)cc(C)c2c1`
> 100 µM

# return TGI of CC1=C(O)C(=O)C2C(=O)C1C(C)C2c1ccc(C)cc1 (stereo unspecified) (system: ACHN renal)
> 100 µM

* * *

In this section we review reported TGI values for a set of compounds.
# Test system: NCI/ADR-RES ovarian
# test description: NCI tumour cell line growth inhibition, 48 h

Sample answers from the record:
compound | assay metric | result
c1ccc(CSc2nnc3c4c5c(sc4nc(-c4cccnc4)n23)CCCCCC5)cc1 | TGI | 38.1 µM
Cn1c(-c2c(N)n(Cc3ccc(C(F)(F)F)cc3)c3nc(C#N)c(C#N)nc23)nc2ccccc21 | TGI | > 100 µM
N=C1S/C(=C/c2ccc(-c3ccc4c(c3)C(=O)NC4=O)o2)C(=O)N1c1ccc(Br)cc1 | TGI | > 100 µM
COc1cc(-c2nn(-c3ccc(NC(=O)NCCCNC(=O)c4ccccc4)cc3)cc2-c2ccncc2)ccc1Cl | TGI | > 100 µM

Tell us which TGI value is on record for `COc1ccc2c(=O)c(-c3cc4c(cc3OC)OCO4)coc2c1`
> 100 µM

Tell me its TGI given `COC(=O)[C@]12CC[C@H]3CN(C(=O)OCc4ccccc4)[C@H]([C@H]31)[C@H](C(=O)OCC[Si](C)(C)C)N2S(=O)(=O)c1ccc(C)cc1` as the entry.
> 100 µM

Provide one value: measured TGI of COc1cccc2c1C(=O)c1c(O)c3c(c(O)c1C2=O)CC(O)(C(=O)CO)CC3OC1CC(N)C(I)C(C)O1 (centres undefined)
> 31.6 µM

Please look at this compound and report its TGI: COC(=O)C(C/C=C(\C)c1ccccc1)C(C)=O (centres undefined)
> 100 µM

Note TGI for the compound shown: `CCOc1ccc2nc3cc(N=Nc4ccc(N)nc4N)ccc3c(N)c2c1`
> 100 µM

Identify TGI associated with the compound COC(=S)OC1CC(n2cnc3c(=O)[nH]cnc32)OC1CO[Si](C)(C)C(C)(C)C (centres undefined)
> 100 µM

Indicate its recorded TGI; the compound in question is `Cn1c2ccccc2c2ccc3c(c21)C(=O)C=CC3=O`
14.4 µM
